All figures here come from patent US20250248998A1.

Target: LRRK2 WT (Homo sapiens, UniProt Q5S007)
Sequence (Q5S007 whole entry, the tested form may be a part): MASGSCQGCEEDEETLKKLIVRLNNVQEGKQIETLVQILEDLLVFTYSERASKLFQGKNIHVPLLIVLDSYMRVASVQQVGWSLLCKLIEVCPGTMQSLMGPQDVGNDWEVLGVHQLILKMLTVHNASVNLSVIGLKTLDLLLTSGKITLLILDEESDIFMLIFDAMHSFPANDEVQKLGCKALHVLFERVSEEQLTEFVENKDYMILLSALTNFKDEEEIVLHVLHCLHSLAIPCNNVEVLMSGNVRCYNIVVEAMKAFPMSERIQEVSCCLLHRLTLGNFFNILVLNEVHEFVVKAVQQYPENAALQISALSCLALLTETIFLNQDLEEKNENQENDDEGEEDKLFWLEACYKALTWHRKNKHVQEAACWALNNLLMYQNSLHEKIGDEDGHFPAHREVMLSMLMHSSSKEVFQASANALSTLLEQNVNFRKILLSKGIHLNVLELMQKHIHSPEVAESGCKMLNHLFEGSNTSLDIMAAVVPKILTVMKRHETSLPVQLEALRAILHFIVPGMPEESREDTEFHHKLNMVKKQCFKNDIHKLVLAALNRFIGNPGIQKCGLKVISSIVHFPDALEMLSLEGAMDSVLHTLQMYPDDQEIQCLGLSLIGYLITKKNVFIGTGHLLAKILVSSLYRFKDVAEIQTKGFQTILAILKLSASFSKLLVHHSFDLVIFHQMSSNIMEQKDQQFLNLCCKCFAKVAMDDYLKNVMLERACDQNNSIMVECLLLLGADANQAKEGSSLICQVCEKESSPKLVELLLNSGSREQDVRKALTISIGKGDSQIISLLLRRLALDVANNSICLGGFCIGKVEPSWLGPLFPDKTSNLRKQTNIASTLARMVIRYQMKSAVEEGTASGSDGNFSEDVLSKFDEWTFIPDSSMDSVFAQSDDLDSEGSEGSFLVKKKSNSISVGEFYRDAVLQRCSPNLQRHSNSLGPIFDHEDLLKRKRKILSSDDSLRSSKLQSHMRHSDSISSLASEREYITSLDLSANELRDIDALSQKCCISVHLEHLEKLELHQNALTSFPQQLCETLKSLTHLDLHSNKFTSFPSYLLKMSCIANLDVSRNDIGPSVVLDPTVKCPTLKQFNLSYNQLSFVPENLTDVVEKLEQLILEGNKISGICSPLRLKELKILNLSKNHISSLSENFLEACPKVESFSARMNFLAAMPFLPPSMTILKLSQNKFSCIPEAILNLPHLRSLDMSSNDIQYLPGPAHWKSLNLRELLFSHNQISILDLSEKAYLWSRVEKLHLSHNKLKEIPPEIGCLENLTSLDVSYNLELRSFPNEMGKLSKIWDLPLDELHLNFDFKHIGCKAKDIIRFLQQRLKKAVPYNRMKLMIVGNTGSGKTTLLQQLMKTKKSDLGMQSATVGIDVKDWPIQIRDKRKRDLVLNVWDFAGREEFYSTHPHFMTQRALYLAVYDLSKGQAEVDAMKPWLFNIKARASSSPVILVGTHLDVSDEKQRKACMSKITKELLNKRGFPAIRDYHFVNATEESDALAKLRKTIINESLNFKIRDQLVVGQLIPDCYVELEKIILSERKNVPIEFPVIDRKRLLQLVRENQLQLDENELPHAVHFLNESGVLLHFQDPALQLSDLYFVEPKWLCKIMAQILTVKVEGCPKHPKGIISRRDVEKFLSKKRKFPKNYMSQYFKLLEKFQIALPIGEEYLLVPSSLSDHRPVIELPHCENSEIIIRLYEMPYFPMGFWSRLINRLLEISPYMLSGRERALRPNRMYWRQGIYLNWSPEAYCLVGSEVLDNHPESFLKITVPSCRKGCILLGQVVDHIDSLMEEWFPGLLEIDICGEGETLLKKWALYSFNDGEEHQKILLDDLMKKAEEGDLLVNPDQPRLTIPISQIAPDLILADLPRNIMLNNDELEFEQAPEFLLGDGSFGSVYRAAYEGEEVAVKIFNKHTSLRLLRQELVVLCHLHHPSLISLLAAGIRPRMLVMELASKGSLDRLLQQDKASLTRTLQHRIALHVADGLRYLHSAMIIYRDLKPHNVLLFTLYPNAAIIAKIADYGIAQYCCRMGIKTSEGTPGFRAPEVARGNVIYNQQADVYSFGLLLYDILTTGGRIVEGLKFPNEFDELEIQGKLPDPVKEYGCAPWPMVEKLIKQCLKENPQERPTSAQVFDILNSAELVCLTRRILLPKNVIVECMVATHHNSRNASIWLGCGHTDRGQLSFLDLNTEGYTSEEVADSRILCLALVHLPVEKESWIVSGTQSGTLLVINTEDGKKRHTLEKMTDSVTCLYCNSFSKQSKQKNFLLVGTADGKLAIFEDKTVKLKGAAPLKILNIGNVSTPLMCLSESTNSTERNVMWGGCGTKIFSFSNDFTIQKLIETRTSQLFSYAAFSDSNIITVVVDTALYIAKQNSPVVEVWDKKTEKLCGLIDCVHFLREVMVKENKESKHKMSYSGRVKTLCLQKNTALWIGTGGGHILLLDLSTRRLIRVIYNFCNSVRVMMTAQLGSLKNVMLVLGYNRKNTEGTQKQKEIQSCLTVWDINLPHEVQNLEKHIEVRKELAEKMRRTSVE
Experiment: Cell-based NanoBRET target engagement assay in HEK293 cells transfected with LRRK2 WT-NanoLuc fusion vector
Settings: compound treatment 1 h
pIC50: −log10 of the molar value.
READOUT: pIC50

The molecule identified as Cn1nc(-c2n[nH]c3ccc(OC4(C)CC4)cc23)cc(N2CCC(C)(C)NC(C)(C)C2)c1=O registered its pIC50 at ≤ 7.00

According to the records, this molecule Cn1nc(-c2n[nH]c3ccc(OC4(C)CC4)cc23)cc(N2CCCNC(C)(C)C2)c1=O displays pIC50 of ≤ 7.00

Just so you know, measured pIC50 for CC(C)N1CCCN(c2cc(-c3n[nH]c4ccc(OC5(C)CC5)cc34)nn(C)c2=O)CC1 came out at ≥ 7.30

// Cn1nc(-c2n[nH]c3ccc(OC4(C)CC4)cc23)cc(N2CC(F)C(C)(C)C2)c1=O (centres unmarked) : pIC50 value = ≥ 7.30

Quick note, pIC50 for CC1CCN(c2cc(-c3n[nH]c4ccc(OC(C)C)cc34)cnn2)C1 (centres unmarked) landed at ≤ 7.00

The reported value for Cn1nc(-c2n[nH]c3ccc(OC4(C)CC4)cc23)cc(N2CCOC(CO)CC2)c1=O (centres unmarked) in terms of pIC50 is ≥ 7.30

Entry Cn1nc(-c2n[nH]c3ccc(OC4CCC4)cc23)cc(N2CCOCC2)c1=O , pIC50 reported as ≤ 7.00

Briefly, pIC50 measured for Cn1nc(-c2n[nH]c3ccc(OC4(C)CC4)cc23)cc(N2CCCOC(C)(C)C2)c1=O : 7.00 to 7.30

pIC50 for Cn1nc(-c2n[nH]c3ccc(OC4CC4)cc23)cc(N2CCOCC2)c1=O is ≤ 7.00

Just so you know, measured pIC50 for Cn1nc(-c2n[nH]c3ccc(OC4(C)CC4)cc23)cc(N2CCOCC(C)(O)C2)c1=O (centres unmarked) came out at ≥ 7.30

Form: molecule = CC1(Oc2ccc3[nH]nc(-c4cc(N5CCOCC6(CC6)C5)c(=O)n(C5CC5)n4)c3c2)CC1 ; pIC50 = ≥ 7.30

// field: pIC50; key: CC1(Oc2ccc3[nH]nc(-c4cc(N5CC(C)(C)C6COCC65)c(=O)n(C5CC5)n4)c3c2)CC1 (centres unmarked) ; value = ≥ 7.30

Noted for Cc1cc2[nH]nc(-c3cc(N4CCOCC4)c(=O)n(C)n3)c2cc1OC(C)C : its pIC50 reads ≤ 7.00

For this molecule ( Cn1nc(-c2n[nH]c3ccc(OC4(C)CC4)cc23)cc(N2CCNC(C(F)(F)F)CC2)c1=O (centres unmarked) ), measured pIC50 is ≥ 7.30

Memo: CN1CCN(c2cc(-c3n[nH]c4ccc(OC5(C)CC5)cc34)nn(C)c2=O)CC(F)(F)C1 , reported pIC50: 7.00 to 7.30

Record Cn1nc(-c2n[nH]c3ccc(OC4(C)CC4)cc23)cc(N2CCCCC(CO)C2)c1=O (centres unmarked) , field pIC50: ≥ 7.30

Per the record, Cn1nc(-c2n[nH]c3ccc(OC4(C)CC4)cc23)cc(N2CC(F)C3(CC3)C2)c1=O (centres unmarked) has pIC50 of ≥ 7.30

C[C@@H]1CN(c2cc(-c3n[nH]c4ccc(OC5(C)CC5)cc34)nn(C3CC3)c2=O)C[C@H](C)O1 yielded pIC50 of ≥ 7.30

So for Cn1nc(-c2n[nH]c3ccc(OC4(C)CC4)cc23)cc(N2CCCN(CC(C)(C)O)CC2)c1=O , the logged pIC50 turned out to be ≥ 7.30

The measured pIC50 associated with CC(C)Oc1ccc2[nH]nc(-c3cc(N4CCOCC4)c(=O)n(C(C)C)n3)c2c1 reads ≤ 7.00

Value of pIC50 reported for the molecule CC(C)Cn1nc(-c2n[nH]c3ccc(OC(C)C)cc23)cc(N2CCOCC2)c1=O is ≤ 7.00

Entry CC(C)Oc1ccc2[nH]nc(-c3cnnc(N4CCOCC4)c3)c2c1 — recorded pIC50 = 7.00 to 7.30

response.value for Cn1nc(-c2n[nH]c3ccc(OC4(C)CC4)cc23)cc(N2CCCOCC2)c1=O (field: pIC50) = ≥ 7.30

Reported pIC50 ( Cn1nc(-c2n[nH]c3ccc(OC4(C)CC4)cc23)cc(N2CC(O)C(C)(C)C2)c1=O (centres unmarked) ) = ≥ 7.30

The molecule identified as CC1(Oc2ccc3[nH]nc(-c4cc(N5CC(F)C6(CC6)C5)c(=O)n(C5CC5)n4)c3c2)CC1 (centres unmarked) registered its pIC50 at ≥ 7.30

The value of pIC50 measured for the molecule Cn1nc(-c2n[nH]c3ccc(OC4(C)CC4)cc23)cc(N2CCOCC(CO)C2)c1=O (centres unmarked) turned out to be ≥ 7.30

The recorded pIC50 for CC(C)Oc1ccc2[nH]nc(-c3cc(N4CCOCC4)c(=O)n(C4CC4)n3)c2c1 is 7.00 to 7.30

CC1CCN(c2cc(-c3n[nH]c4ccc(OC5(C)CC5)cc34)nn(C)c2=O)CCC1O (centres unmarked) has a reported pIC50 of ≥ 7.30

Query CC(C)Oc1ccc2[nH]nc(-c3cc(N4CCOCC4)c(=O)n(C4CCCC4)n3)c2c1 yields pIC50 of 7.00 to 7.30

Form: molecule = Cn1nc(-c2n[nH]c3ccc(OC4(C)CC4)cc23)cc(N2CCOCC2)c1=O ; pIC50 = ≥ 7.30

Item: Cn1nc(-c2n[nH]c3ccc(OC4(C)CC4)cc23)cc(N2CCC(O)C(F)CC2)c1=O (centres unmarked) | pIC50: ≥ 7.30

Lab book: pIC50 of CC(C)Oc1ccc2[nH]nc(-c3cc(N4CCCC4)c(=O)n(C)n3)c2c1 noted as ≥ 7.30
